Assay: Tissue distribution of toremifene after single dose (500 μg) IP vs. topical
Format: in vivo
Conditions: mouse, tumor, topical or ocular, 0.5 mg, Tumor toremifene concentration, topical in DMSO
observable: concentration at 2 h (ng/g)
Give bare numbers, in ng/g.

Name the reported concentration at 2 h value associated with the compound CN(C)CCOc1ccc(/C(=C(/CCCl)c2ccccc2)c2ccccc2)cc1 [toremifene] 4650
